assay_system: FAM19A5 protein (Homo sapiens, UniProt Q7Z5A7)
assay_info: competitive inhibition ELISA, 20 nM peptide, rFAM19A5 1 ng/mL; competitor: coated LRRC4B(453-576)-hFc
measured_metric: Inhibition rate (%)

> print(dat)
                         binder  reported
1  KNYTYFTTVTVENKETQ [FB-m10dC]      21.9
2    KNYFTTVTVETNKETQ [FB-m9dN]      -1.6
3  GYTYFTTVTVETLETQPGEE [FB-20]        62
4     KNYTYFTTVTNKETQ [FB-m8dC]      -0.9

Recorded values, source patent US20240238445A1.
